Examples of sequences with documented apparent KD of K4 kissing-loop reporter follow.
# System: K4 kissing-loop RNA reporter;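 further: bound reporter read as fluorescence of individual clusters on recovered sequencing chips by microscopy, with normalized cluster intensities fitted with a binding model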
# experimentalProtocol: apparent KD of K4 kissing-loop reporter; higher = weaker reporter binding
# recordedConditions: Eterna round: R107; input ligand: tryptophan 2.4 mM
Value expressed in µM; do not type the unit.

constructSequence	result
AAAAUAAGCCAGUGAUGUUGGGAUCCAGAUACCAGCGACGAAAGUCGCCCUUGGCAGCUGUGGACGUACAAAAUAAGUACGUCCU	0.992
AAUAUCUAGUAUAUAUUUAAUAAAACAGAUACCAGUGAUAAUAGACACCCUUGGCAGCUGGACGAGUGAUGUUCGUAUAUAUUAA [JR_SSTheophyA_Sub007]	0.0668
UCCUGCAAUCUGCCACGAAAGUGGGUUGAUACCAGAGUCGAAAGACUCCCUUGGCAGCGAGUGAUGUUCGUUGCAGGUGUUUAAA [MatMod 11 - Jieux - Exclusion - Theophylline A]	0.174

Recall and state the measured apparent KD of K4 kissing-loop reporter for UGGAGUUGACGAAAAGUCAACUCCUGAGAUACCAGUGACGAAAGUCACCCUUGGCAGCUCACUGGCAGUGAUGUUGCUAUAUAAA [KL-SSTheo-A3] .
0.101

Recall and state the measured apparent KD of K4 kissing-loop reporter for UGGACCUGACUCGAUAAGAGUCAAUGAGAUACCAGUGACGAAAGUCACCCUUGGCAGCUCCUGCCAGUGAUGUUGGUAAGGUCCU [#SwitchBubble 4 #StaticStem] .
0.299

Recall and state the measured apparent KD of K4 kissing-loop reporter for CAUAGGAAACUAUGUUUCUCUCUUACUGAAGGAGCGCGUGAAAACGCAGGUAGGUCGCAGAAUUUGAGAGUGAUGUUCUCAAUAA [Ex Arginine A K4 13] .
0.116

----------
Examples of sequences with documented apparent KD of MS2 coat protein follow.
# Tested on: MS2 coat protein
# experimentalProtocol: apparent KD of MS2 coat protein; designed switch direction (-1 OFF switch, 1 ON switch): 1; higher = weaker reporter binding
# recordedConditions: input ligand: FMN 200 uM
Value expressed in µM; do not type the unit.

constructSequence	outcomeMeasure	displayUnit	result
AGCCUGCCGCAAGGAUAUGAAGCUUUCGCUCCGUCAGAAGGUGCACAUGAGGAUCACCCAUGUAUGCAGGCCAAGAAAUAAAAC [Inbilerate] (Eterna round: R96, puzzle: Same State NG 1)	apparent KD of MS2 coat protein	µM	0.0201
AGAUCAUGACGAGGAUAUGGAACAUGAGGAUCACCCAUGUAUGUUCCAUAACGCGAAUAAAGAAUCCAGAAGGCGUCGUGGUCA [Mat - Same State NG 2 - JL mod - D30] (Eterna round: R96, puzzle: Same State NG 2)	apparent KD of MS2 coat protein	µM	0.0102

Here's the next entry for you.
Recall and state the measured apparent KD of MS2 coat protein for CACCAGAGAGCAGGAUAUGGGCCACGGCCUAAGGGCUGUGAACUCACAUGAGGAUCACCCAUGUCCCAGAAGGGCUCCUGGCUA [Getiised] (Eterna round: R96, puzzle: Same State NG 2) .
0.0983

----------
# System: MS2 coat protein
# experimentalProtocol: apparent KD of MS2 coat protein, switch OFF state (with FMN for OFF switches, without FMN for ON switches); designed switch direction (-1 OFF switch, 1 ON switch): 1; higher = weaker reporter binding
# recordedConditions: FMN input: 0 or 200 uM; Eterna round: R93 (includes R88 designs)
Examples of sequences with documented apparent KD of MS2 coat protein follow.
Value expressed in µM; do not type the unit.

Recall and state the measured apparent KD of MS2 coat protein for CGGAGACAUGAGGAUCACCCAUGUGAGAAGAGGCGAGGAUAUCGAAAGAAAGAAGAGAAACGAGAAGGCGCGAGUU [salish99-SS1-070] .
0.0345

Recall and state the measured apparent KD of MS2 coat protein for GAGGACAUAGUACAGGAUAUAUGAAUAGUUACAUGAGGAUCACCCAUGUGCAUUAAUAUGCGAACAUAGAAGGGUGGUAGUUAUC [Mat - Same state - Malcolm Mod - D128] .
0.0644

Recall and state the measured apparent KD of MS2 coat protein for AAAAACAUGGUGUAGGAUAUAUUAAUAGUCACAUGAGGAUCACCCAUGUUCAGAUAUCUGAACGAGUAGAAGGACGAUGAAAAAA [Mat - Same state - Malcolm Mod - D109] .
0.349

Recall and state the measured apparent KD of MS2 coat protein for AAAAAACAUGAGGAUCACCCAUGUAGAAACAUGGGAGGAUAUACAAAGACGAAAGUCAAAGUAGAAGGCCUAAAAG [Mat - Same State 1 - Mod - D158] .
0.0692

Recall and state the measured apparent KD of MS2 coat protein for AUAAAACAUGAGGAUCACCCAUGUCCGACAAAUCAAGGAUAUGAGAGCAAAACCAGGCUGUUAGAAGGUGAAAGAA [Atlausa] .
0.154
